Task for the reader: assign each of the following compounds its reported hepatocyte CLint.
- TEST METHOD NOTES: Rat hepatocyte intrinsic clearance
- Format: in vitro ADME
- EXPERIMENTAL PARAMETERS: rat hepatocytes, NEU; read-out: Rat Hep CLint (NEU)
Respond with the bare value in µL/min/1e6 cells.

hepatocyte CLint reading for CN(c1ccc(F)cc1)c1c(-c2ccccn2)nc2c(F)cccn12 : 209

hepatocyte CLint reading for COc1ccn2c(-c3ccc(F)cc3)c(-c3ccccn3)nc2c1 : 25.1

###

- Test system: MRC-5SV2 (human lung fibroblast cell line)
- TEST METHOD NOTES: Toxicity against MRC-5SV2
- Format: cell-based
- EXPERIMENTAL PARAMETERS: MRC5 cells
- Experimental: ADME and toxicity for compounds were measured according to procedures outlined in the manuscript submitted in parallel to this one;2 other procedures were used for those compounds analysed by Monash University (in vitro ADME) or UCL (toxicity), both described in the main
PARAMETER: MRC5 TC50 (µM)
Respond with the bare value in µM.

MRC5 TC50 reading for Cc1ccc2nc(-c3ccccc3)cn2c1 [OSA_001026] : 64

MRC5 TC50 reading for N#CCc1ccc(-n2c(-c3ccccn3)nc3ccccc32)cc1 [OSA_000996] : 64

MRC5 TC50 reading for CC(C)CN(c1ccc(F)cc1)c1c(-c2ccccn2)nc2ccccn12 [OSA_000983] : 54

MRC5 TC50 reading for c1ccc(Cn2c(-c3ccccn3)nc3ccccc32)cc1 [OSA_000993] : 64

MRC5 TC50 reading for Cc1ccn2c(CN(CC(C)C)c3cccc(C(F)(F)F)c3)c(-c3ccccn3)nc2c1 [OSA_001033] : 9.78

###

Task for the reader: assign each of the following molecules its reported MIC.
- Test system: Staphylococcus aureus ATCC 43300 MRSA
- TEST METHOD NOTES: CO-ADD antibacterial assay (growth inhibition, MIC), MRSA
- Type: cell-based
- EXPERIMENTAL PARAMETERS: read-out: MRSA MIC (CO-ADD)

MIC reading for c1cncc(-c2nc3n(c2-c2ccc4c(c2)OCO4)CCC3)c1 : > 32 µg/mL

MIC reading for c1cc(-c2nc3n(c2-c2ccc4c(c2)OCO4)CCC3)ccn1 : > 32 µg/mL

MIC reading for COc1cccc(-c2c(-c3ccccn3)nc3n2CCC3)c1 : 16 µg/mL

###

- TEST METHOD NOTES: Rat hepatocyte intrinsic clearance
- Assay type: in vitro ADME
- EXPERIMENTAL PARAMETERS: rat hepatocytes, NEU
- Description: To guide our initial SAR exploration work, we obtained liver microsomal intrinsic clearance data for 5 of the 18 compounds assayed by CO-ADD (Supporting Information - CDCO Report and Supporting Information - Biology). […] ADME and toxicity for compounds were measured according to procedures outlined in the manuscript submitted in parallel to this one;2 other procedures were used for those compounds analysed by Monash University (in vitro ADME) or UCL (toxicity), both described in the main
Classify: condition met when Rat Hep CLint (NEU) is strictly less than 50 uL/min/10x6 cells; condition not met when Rat Hep CLint (NEU) is not.

Rat Hep CLint (NEU) strictly < 50 uL/min/10x6 cells for this compound? CCCN(c1ccc(F)cc1)c1c(-c2ccccn2)nc2ccccn12 [OSA_000982]
condition not met

Rat Hep CLint (NEU) strictly < 50 uL/min/10x6 cells for this compound? Cc1ccc(-c2c(-c3ccccn3)nc3cc(Cl)ccn23)cc1 [OSA_000978]
condition not met

Rat Hep CLint (NEU) strictly < 50 uL/min/10x6 cells for this compound? N#Cc1ccc(-c2c(-c3ccccn3)nc3n2CCC3)cc1 [OSA_000975]
condition met

Rat Hep CLint (NEU) strictly < 50 uL/min/10x6 cells for this compound? Fc1ccc(N(CC2CC2)c2c(-c3ccccn3)nc3ccccn23)cc1 [OSA_000979]
condition not met

Rat Hep CLint (NEU) strictly < 50 uL/min/10x6 cells for this compound? c1ccc(-c2nc3n(c2-c2ccc4sc5ccccc5c4c2)CCC3)nc1 [OSA_000831]
condition not met

Rat Hep CLint (NEU) strictly < 50 uL/min/10x6 cells for this compound? Clc1ccc(-c2c(-c3ccccn3)nc3n2CCC3)cc1 [OSA_000875]
condition met

Rat Hep CLint (NEU) strictly < 50 uL/min/10x6 cells for this compound? N#Cc1cccc(-c2c(-c3ccccn3)nc3n2CCC3)c1 [OSA_000864]
condition met

Rat Hep CLint (NEU) strictly < 50 uL/min/10x6 cells for this compound? CN(C)C(=O)c1ccc(-c2c(-c3ccccn3)nc3n2CCC3)cc1 [OSA_000974]
condition met

Rat Hep CLint (NEU) strictly < 50 uL/min/10x6 cells for this compound? CS(=O)(=O)c1ccc(-c2c(-c3ccccn3)nc3n2CCC3)cc1 [OSA_000837]
condition met

Rat Hep CLint (NEU) strictly < 50 uL/min/10x6 cells for this compound? FC(F)(F)Oc1ccc(-c2c(-c3ccccn3)nc3n2CCC3)cc1 [OSA_000868]
condition not met

Rat Hep CLint (NEU) strictly < 50 uL/min/10x6 cells for this compound? COc1ccn2cc(-c3ccccn3)nc2c1 [OSA_000856]
condition not met

Rat Hep CLint (NEU) strictly < 50 uL/min/10x6 cells for this compound? Cc1cccc(-c2c(-c3ccccn3)nc3n2CCC3)c1 [OSA_000976]
condition not met

Rat Hep CLint (NEU) strictly < 50 uL/min/10x6 cells for this compound? c1ccc(-c2c(-c3ccccn3)nc3n2CCC3)cc1 [OSA_000870]
condition met

Rat Hep CLint (NEU) strictly < 50 uL/min/10x6 cells for this compound? C[S+]([O-])c1ccc(-c2c(-c3ccccn3)nc3n2CCC3)cc1 (centres unmarked) [OSA_000838]
condition met

Rat Hep CLint (NEU) strictly < 50 uL/min/10x6 cells for this compound? CC(C)CN(c1ccc(F)cc1)c1c(-c2ccccn2)nc2ccccn12 [OSA_000983]
condition not met

Rat Hep CLint (NEU) strictly < 50 uL/min/10x6 cells for this compound? Cc1ccc(-c2c(-c3ccccn3)nc3ccccn23)cc1 [OSA_001018]
condition not met

Rat Hep CLint (NEU) strictly < 50 uL/min/10x6 cells for this compound? Clc1ccc(-c2c(-c3ccccn3)nc3n2CCC3)cc1Cl [OSA_000876]
condition met

###

Task for the reader: assign each of the following compounds its reported CC50 at 24 h.
- TEST METHOD NOTES: HEK293 toxicity, 96-well dose-response (UCL; MTT or resazurin, with or without recovery)
- Format: cell-based, human
- EXPERIMENTAL PARAMETERS: human, HEK293 cells; read-out: HEK293 CC50
Respond with the bare value in µg/mL.

CC50 at 24 h reading for c1ccc(-c2nc3n(c2-c2ccc4sccc4c2)CCC3)nc1 [OSA_000822] : 2.9

CC50 at 24 h reading for c1ccc(-c2nc3n(c2-c2ccc4occc4c2)CCC3)nc1 [compound 821] : 1.7

###

- System: PMM (primary mouse macrophages)
- TEST METHOD NOTES: Toxicity against PMM
- Format: cell-based
- EXPERIMENTAL PARAMETERS: PMM
- Procedure: ADME and toxicity for compounds were measured according to procedures outlined in the manuscript submitted in parallel to this one;2 other procedures were used for those compounds analysed by Monash University (in vitro ADME) or UCL (toxicity), both described in the main
Task for the reader: assign each of the following compounds its reported PMM TC50.
Respond with the bare value in µM.

PMM TC50 reading for c1ccc(-c2nc3ccccc3n2-c2ccc(N3CCOCC3)cc2)nc1 : 64

PMM TC50 reading for COc1ccn2c(Nc3ccccc3F)c(-c3cnn(C)c3)nc2c1 : 64

PMM TC50 reading for COc1ccn2cc(-c3ccccn3)nc2c1 : 64

PMM TC50 reading for CC(=O)N(c1ccc(F)cc1)c1c(-c2ccccn2)nc2ccccn12 : 64

PMM TC50 reading for N#Cc1ccc(-c2c(-c3ccccn3)nc3n2CCC3)cn1 : 64

PMM TC50 reading for CCCCN(Cc1c(-c2ccccn2)nc2cc(C)ccn12)c1ccc(F)cc1 : 32

PMM TC50 reading for CCCCN(Cc1c(-c2ccccc2)nc2ccc(C)cn12)c1cccc(C(F)(F)F)c1 : 8

PMM TC50 reading for c1ccc(-c2nc3ccccc3n2-c2ccc(N3CCCCC3)cc2)nc1 : 15.32

PMM TC50 reading for Fc1ccc(NCc2c(-c3ccccn3)nc3ccccn23)cc1 : 64

###

- System: Staphylococcus aureus NCTC 13373 (mecA-positive; methicillin-resistant)
- TEST METHOD NOTES: In vitro antibacterial activity, MIC (UCL School of Pharmacy assay), MRSA
- Format: cell-based
- EXPERIMENTAL PARAMETERS: Staphylococcus aureus, UCL; read-out: MRSA MIC (UCL)
PARAMETER: MIC (µg/mL)
Respond with the bare value in µg/mL.

The reported Staphylococcus aureus NCTC 13373 (mecA-positive; methicillin-resistant) MIC of Clc1ccn2c(-c3ccc4occc4c3)c(-c3ccccn3)nc2c1 is 8

The reported Staphylococcus aureus NCTC 13373 (mecA-positive; methicillin-resistant) MIC of c1ccc(-c2nc3n(c2-c2ccc4scnc4c2)CCC3)nc1 is 32

The reported Staphylococcus aureus NCTC 13373 (mecA-positive; methicillin-resistant) MIC of CSc1ccc2nc(-c3ccccn3)c(N(C)c3ccc(F)cc3)n2c1 is 8

The reported Staphylococcus aureus NCTC 13373 (mecA-positive; methicillin-resistant) MIC of c1ccc(-c2nc3n(c2-c2csc4ccccc24)CCC3)nc1 is 8
